Target: IL-17A(FLAG-Tagged): IL-17RA(His-Tagged) (Homo sapiens, UniProt Q16552, K93Q)
Sequence (Q16552 with tags, fused parts or gaps K93Q): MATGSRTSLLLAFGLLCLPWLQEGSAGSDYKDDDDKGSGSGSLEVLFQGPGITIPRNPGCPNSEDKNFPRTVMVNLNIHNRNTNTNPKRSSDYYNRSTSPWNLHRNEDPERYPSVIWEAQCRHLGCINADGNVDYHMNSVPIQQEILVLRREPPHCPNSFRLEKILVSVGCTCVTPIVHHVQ
Assay: IL-17A(FLAG-Tagged): IL-17RA(His-Tagged) Binding Disruption Eu-HTRF Assay
Conditions: IL-17A/IL-17RA binding disruption, simple average if tested more than once
quantity: IC50 (nM)

See these solved cases before continuing.
{"columns": ["molecule", "data value"],
 "data": [
  ["CC(C)(O)c1nonc1C(=O)N[C@H](c1cn2ncc(C(NC(=O)CC3CC(F)(F)C3)C3CCC3)cc2n1)C1CCC(F)(F)CC1 (single isomer, unassigned)", 180],
  ["CC(C)C(NC(=O)CC1CC(F)(F)C1)c1cnn2cc([C@@H](NC(=O)c3nonc3C3CC3)C3CCC(F)(F)CC3)nc2c1 (single isomer, unassigned)", 30],
  ["CC(C)n1nccc1C(=O)N[C@H](c1cn2ncc(C(CC#N)NC(=O)CC3CC(F)(F)C3)cc2n1)C1CCC(F)(F)CC1 (single isomer, unassigned) [Example 399]", 310]
]}

I = Cc1ncoc1C(=O)N[C@H](c1cn2ncc([C@H](NC(=O)CCC(F)(F)F)C3CC3)cc2n1)C1CCC(F)(F)CC1
II = O=C(CCC(F)(F)F)N[C@@H](c1cnn2cc([C@@H](NC(=O)[C@H]3C[C@H]3F)C3CCC(F)(F)CC3)nc2c1)C1CC1
III = C[C@H](CC(=O)N[C@@H](c1cnn2cc([C@@H](NC(=O)[C@@H]3C[C@H]3C(F)(F)F)C3CCC(F)(F)CC3)nc2c1)C1CC1)C(F)(F)F (relative stereo)
Qu. List items by IC50 in falling order. Ranked list of labels, please, in the requested order.
Ans. II, III, I
(II: 5400 nM, III: 3400 nM, I: 380 nM)

The reported numbers originate from patent US11702422B2.
